Measurement notes: Ratio of oxazepam level in brain to blood in albino mouse at 5 mg equivalent of oxazepam/kg after 40 mins
Assay type: ADME, tissue-based
Result type: Ratio
The answer should be written as a number, with no unit following it.

Ask: Field request: Ratio | item: CC(C)C(=O)OC1N=C(c2ccccc2)c2cc(Cl)ccc2N[14C]1=O (centres undefined)
Result: 2.3

Ask: Lookup CC(Cc1ccccc1)C(=O)OC1N=C(c2ccccc2)c2cc(Cl)ccc2N[14C]1=O (single isomer, unassigned; (-))
Result: 2.1

Ask: Lookup O=C(CCc1ccccc1)OC1N=C(c2ccccc2)c2cc(Cl)ccc2N[14C]1=O (centres undefined)
Result: 2.2

Ask: Lookup O=C(CCCc1ccccc1)OC1N=C(c2ccccc2)c2cc(Cl)ccc2N[14C]1=O (centres undefined)
Result: 0.9

----------
Give measured Ratio for each item. Keep answers brief.
Measurement notes: Ratio of oxazepam level in brain to blood in albino mouse at 5 mg equivalent of oxazepam/kg after 10 mins
Type: ADME, tissue-based
The answer should be written as a number, with no unit following it.

Ask: Field request: Ratio | item: O=C(CCc1ccccc1)OC1N=C(c2ccccc2)c2cc(Cl)ccc2N[14C]1=O (centres undefined)
Result: 0.5

Ask: Lookup O=C(CCCc1ccccc1)OC1N=C(c2ccccc2)c2cc(Cl)ccc2N[14C]1=O (centres undefined)
Result: 0.4

Ask: Lookup CC(C)C(=O)OC1N=C(c2ccccc2)c2cc(Cl)ccc2N[14C]1=O (centres undefined)
Result: 1.8

Ask: Lookup CC(Cc1ccccc1)C(=O)OC1N=C(c2ccccc2)c2cc(Cl)ccc2N[14C]1=O (single isomer, unassigned; (-))
Result: 1.6

----------
Measurement notes: Ratio of oxazepam level in brain to blood in albino mouse at 5 mg equivalent of oxazepam/kg after 20 mins
Assay type: ADME, tissue-based
Result type: Ratio
The answer should be written as a number, with no unit following it.

Ask: Field request: Ratio | item: O=C(CCc1ccccc1)OC1N=C(c2ccccc2)c2cc(Cl)ccc2N[14C]1=O (centres undefined)
Result: 1.4

Ask: Lookup CC(Cc1ccccc1)C(=O)OC1N=C(c2ccccc2)c2cc(Cl)ccc2N[14C]1=O (single isomer, unassigned; (-))
Result: 2

Ask: Lookup CC(C)C(=O)OC1N=C(c2ccccc2)c2cc(Cl)ccc2N[14C]1=O (centres undefined)
Result: 1.9

Ask: Lookup O=C(CCCc1ccccc1)OC1N=C(c2ccccc2)c2cc(Cl)ccc2N[14C]1=O (centres undefined)
Result: 1

----------
Test system: serum albumin (Homo sapiens, UniProt P02768)
Sequence (P02768 whole entry): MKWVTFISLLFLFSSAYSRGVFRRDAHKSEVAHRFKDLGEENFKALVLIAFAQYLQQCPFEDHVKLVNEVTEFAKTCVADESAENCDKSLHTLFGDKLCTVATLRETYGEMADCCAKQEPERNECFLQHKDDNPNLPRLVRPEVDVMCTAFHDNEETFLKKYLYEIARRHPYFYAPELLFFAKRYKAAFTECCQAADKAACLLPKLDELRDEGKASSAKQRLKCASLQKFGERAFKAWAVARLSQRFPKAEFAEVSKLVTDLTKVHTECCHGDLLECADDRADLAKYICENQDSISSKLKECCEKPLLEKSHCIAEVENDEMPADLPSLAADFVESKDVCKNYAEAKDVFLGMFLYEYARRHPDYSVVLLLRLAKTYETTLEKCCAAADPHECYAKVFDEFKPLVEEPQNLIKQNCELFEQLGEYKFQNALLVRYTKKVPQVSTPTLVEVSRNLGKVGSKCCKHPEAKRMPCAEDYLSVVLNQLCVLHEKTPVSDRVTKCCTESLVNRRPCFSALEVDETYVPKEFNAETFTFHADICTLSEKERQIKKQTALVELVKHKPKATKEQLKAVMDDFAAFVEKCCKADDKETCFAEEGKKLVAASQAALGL
Measurement notes: Binding affinity to human serum albumin at 10 uM after 12 to 20 hrs by scintillation spectrometry
Type: ADME
Decision: fraction unbound at 10 µM beneath 0.08 gives 1.0; fraction unbound at 10 µM meeting or exceeding 0.08 gives 0.0.

Ask: A record lists CC(C)CC(=O)OC1N=C(c2ccccc2)c2cc(Cl)ccc2NC1=O (stereo not given) . Is its fraction unbound at 10 µM below 0.08?
Result: 0.0

Ask: Lookup COC(=O)CCC(=O)OC1N=C(c2ccccc2)c2cc(Cl)ccc2NC1=O (stereo not given)
Result: 0.0

Ask: Lookup O=C(CCc1ccccc1)OC1N=C(c2ccccc2)c2cc(Cl)ccc2NC1=O (stereo not given)
Result: 1.0

Ask: Lookup CC(=O)OC1N=C(c2ccccc2)c2cc(Cl)ccc2NC1=O (stereo not given)
Result: 0.0

Ask: Lookup CCC(CC)C(=O)OC1N=C(c2ccccc2)c2cc(Cl)ccc2NC1=O (stereo not given)
Result: 1.0

Ask: Lookup CC(C)(Cc1ccccc1)C(=O)OC1N=C(c2ccccc2)c2cc(Cl)ccc2NC1=O (stereo not given)
Result: 1.0

Ask: Lookup CCCC(=O)OC1N=C(c2ccccc2)c2cc(Cl)ccc2NC1=O (stereo not given)
Result: 0.0

Ask: Lookup O=C(CCCc1ccccc1)OC1N=C(c2ccccc2)c2cc(Cl)ccc2NC1=O (stereo not given)
Result: 1.0

Ask: Lookup CC(Cc1ccccc1)C(=O)OC1N=C(c2ccccc2)c2cc(Cl)ccc2NC1=O (stereo not given)
Result: 1.0

----------
Give measured Ratio for each item. Keep answers brief.
Measurement notes: Ratio of oxazepam level in brain to blood in albino mouse at 5 mg equivalent of oxazepam/kg after 5 mins
Format: ADME, tissue-based
The answer should be written as a number, with no unit following it.

Ask: Field request: Ratio | item: O=C(CCc1ccccc1)OC1N=C(c2ccccc2)c2cc(Cl)ccc2N[14C]1=O (centres undefined)
Result: 0.5

Ask: Lookup CC(Cc1ccccc1)C(=O)OC1N=C(c2ccccc2)c2cc(Cl)ccc2N[14C]1=O (single isomer, unassigned; (-))
Result: 1.1

Ask: Lookup CC(C)C(=O)OC1N=C(c2ccccc2)c2cc(Cl)ccc2N[14C]1=O (centres undefined)
Result: 1.2

Ask: Lookup O=C(CCCc1ccccc1)OC1N=C(c2ccccc2)c2cc(Cl)ccc2N[14C]1=O (centres undefined)
Result: 0.3

----------
Measurement notes: Fraction unbound in 22% albino mouse serum at 10 uM by equilibrium dialysis method in presence of diisopropyl fluorophosphate
Type: ADME, cell-free
Decision: fraction unbound at 10 µM beneath 0.1 gives YES; fraction unbound at 10 µM meeting or exceeding 0.1 gives NO.

Ask: A record lists CC(C)CC(=O)OC1N=C(c2ccccc2)c2cc(Cl)ccc2NC1=O (centres undefined) . Is its fraction unbound at 10 µM below 0.1?
Result: YES

Ask: Lookup CC(Cc1ccccc1)C(=O)OC1N=C(c2ccccc2)c2cc(Cl)ccc2NC1=O (centres undefined)
Result: NO

Ask: Lookup CC(=O)OC1N=C(c2ccccc2)c2cc(Cl)ccc2NC1=O (centres undefined)
Result: NO

Ask: Lookup CCC(CC)C(=O)OC1N=C(c2ccccc2)c2cc(Cl)ccc2NC1=O (centres undefined)
Result: YES

Ask: Lookup CC(C)(Cc1ccccc1)C(=O)OC1N=C(c2ccccc2)c2cc(Cl)ccc2NC1=O (centres undefined)
Result: NO

Ask: Lookup CC(C)C(=O)OC1N=C(c2ccccc2)c2cc(Cl)ccc2NC1=O (centres undefined)
Result: NO

Ask: Lookup CCCC(=O)OC1N=C(c2ccccc2)c2cc(Cl)ccc2NC1=O (centres undefined)
Result: NO

Ask: Lookup COC(=O)CCC(=O)OC1N=C(c2ccccc2)c2cc(Cl)ccc2NC1=O (centres undefined)
Result: NO

Cited source for all entries: ChEMBL document CHEMBL3244425
